- Measured On: T1, Pin3, Q06449
- T1 sequence (Q06449 53-122, looked up): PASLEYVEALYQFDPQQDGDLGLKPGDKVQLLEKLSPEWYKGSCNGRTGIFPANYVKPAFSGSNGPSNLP
- Measurement Description: SPOT array
- Conditions Used: median of control spots 2171
Measure Name: SPOT intensity

RHLKNIPRIPIFSIL :: 84
HKVLRPFLLRRLKKD :: 4
RRARRQMGIPTISQV :: 33
APPLPPTAPPPPSLP :: 0

P = ALFRLSFFFPLDPAY
Q = NFFRKKLGIPRKLKR
[Q] Lab note: record which item had the higher SPOT intensity, P or Q . // return label of chosen record
[A] P
(P: 39, Q: 7)

a = TKIRRRPQQPLTDFT
b = MPAPPPPPPPPPGAF
c = QTREPNEPPPPSPAM
d = IPSRPAPKPPSSASA
e = FHLNPKRSAVLYDRP
[Q] Ascending by SPOT intensity, please. Form entry: ranked labels (order as requested).
[A] b, d, a, c, e

1 = DLFKPLPEPPTELGR
2 = RRRDFGAPANKRPRR
3 = TPEIPPPLPPKIMVH
[Q] // sort entries: SPOT intensity, high to low Form entry: ranked labels (order as requested).
[A] 3, 2, 1
(3: 20, 2: 9, 1: 0)
